# Target under test: His-tagged recombinant human TrkA (Homo sapiens, UniProt P04629)
# Construct: 6HIS tagged cytoplasmic domain from Invitrogen, Catalog No. PV3144
# Sequence (P04629 440-796 limits assumed): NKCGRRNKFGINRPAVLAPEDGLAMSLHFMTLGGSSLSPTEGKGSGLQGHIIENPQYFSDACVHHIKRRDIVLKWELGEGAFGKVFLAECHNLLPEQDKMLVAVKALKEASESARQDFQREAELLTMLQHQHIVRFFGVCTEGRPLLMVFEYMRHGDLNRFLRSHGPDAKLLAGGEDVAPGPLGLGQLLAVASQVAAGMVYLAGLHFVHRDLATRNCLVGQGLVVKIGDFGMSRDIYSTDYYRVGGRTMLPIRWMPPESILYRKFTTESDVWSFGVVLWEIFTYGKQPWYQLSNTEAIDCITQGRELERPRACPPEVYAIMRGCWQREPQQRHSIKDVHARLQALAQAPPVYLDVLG
# Assay info: TrkA LanthaScreen Eu Kinase Binding Assay
# Condition summary: averaged IC50 values; read-out: TrkA enzyme IC50
Measurement label: IC50

Compound	IC50
COCCN1C[C@@H](NC(=O)Nc2c(-c3ccccc3)nc3c(OC)nccn23)[C@H](c2ccc(F)c(F)c2)C1	< 0.1 µM
COCCN1C[C@@H](NC(=O)Nc2c(-c3ccccc3)nc3c(C)nccn23)[C@H](c2ccc(F)c(F)c2)C1	< 0.1 µM
COCCN1C[C@@H](NC(=O)Nc2c(-c3ccccc3)nc3ccc(F)cn23)[C@H](c2ccccc2)C1 (relative stereo)	< 0.1 µM
COCCN1C[C@@H](NC(=O)Nc2c(-c3ccccc3)nc3c(C)cccn23)[C@H](c2ccccc2)C1 [Example 15]	< 0.1 µM
COCCN1C[C@@H](NC(=O)Nc2c(-c3ccccc3)nc3ncccn23)[C@H](c2ccccc2)C1 (relative stereo)	< 0.1 µM
CCn1ccn2c(NC(=O)N[C@@H]3CN(CCOC)C[C@H]3c3ccc(F)c(F)c3)c(-c3ccccc3)nc2c1=O	< 0.1 µM

Read the next record carefully.
Please report the measured IC50 for COCCN1C[C@@H](NC(=O)Nc2cccc3c(Br)n[nH]c23)[C@H](c2ccccc2)C1 (relative stereo) < 0.1 µM
